For each of the sequences below, state its PBM E-score.
# Measurement Target: Ecm22 (UniProt Q05958)
# Sequence: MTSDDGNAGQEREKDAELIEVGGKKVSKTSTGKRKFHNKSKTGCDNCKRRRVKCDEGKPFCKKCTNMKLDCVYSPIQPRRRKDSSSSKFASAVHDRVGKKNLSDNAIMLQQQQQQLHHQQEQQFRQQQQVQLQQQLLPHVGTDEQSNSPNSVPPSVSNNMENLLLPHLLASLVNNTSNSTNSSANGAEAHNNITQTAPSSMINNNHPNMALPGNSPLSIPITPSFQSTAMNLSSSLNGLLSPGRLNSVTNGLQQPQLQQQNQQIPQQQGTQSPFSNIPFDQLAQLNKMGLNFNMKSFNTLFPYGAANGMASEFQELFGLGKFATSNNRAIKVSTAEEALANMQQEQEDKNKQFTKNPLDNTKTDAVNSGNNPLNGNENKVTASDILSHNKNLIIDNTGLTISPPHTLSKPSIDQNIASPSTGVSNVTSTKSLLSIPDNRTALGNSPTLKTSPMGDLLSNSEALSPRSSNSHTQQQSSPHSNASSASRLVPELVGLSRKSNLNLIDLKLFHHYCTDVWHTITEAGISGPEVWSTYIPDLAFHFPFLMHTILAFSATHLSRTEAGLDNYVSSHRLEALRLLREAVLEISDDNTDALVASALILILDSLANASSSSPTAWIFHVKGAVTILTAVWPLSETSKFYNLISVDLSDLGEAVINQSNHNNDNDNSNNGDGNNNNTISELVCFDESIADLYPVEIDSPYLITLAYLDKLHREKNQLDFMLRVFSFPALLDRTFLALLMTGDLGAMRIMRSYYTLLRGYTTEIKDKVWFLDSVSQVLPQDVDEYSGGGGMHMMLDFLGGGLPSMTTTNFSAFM
# Assay Summary: PBM E-score (8-mer binding enrichment) (E-score (-0.5 to 0.5)); higher = stronger / more preferred TF binding
# Test Parameters: protein concentration: 200 nM; construct: GST-full length
The full ranking holds about 33,000 sequences; the median of “E-score (-0.5 to 0.5)” is about -0.041, and the highest 2% start at about 0.37. This is one part of a sample in which the highest values are shown more often than they occur.

### Prompt May I ask what PBM E-score has been recorded for GCTACGAA ?
### Response 0.429

### Prompt Now consider ACTACGAC .
### Response 0.329

### Prompt Another sequence to check: CTAGACAG
### Response -0.189

### Prompt Try this sequence next: GCTACGAC
### Response 0.426

### Prompt Also, TCGATCAA please.
### Response 0.0228

### Prompt // next record CCTACGAC
### Response 0.232

### Prompt And for CAAAAGTA ?
### Response -0.0653

### Prompt Would you mind doing ACCCCGAC as well?
### Response -0.0233

### Prompt Try this sequence next: AGCGTATG
### Response 0.136

### Prompt Input AGCGTATC
### Response 0.0945

### Prompt Let us now turn to ACGGGAGC
### Response 0.225

### Prompt Do the same for CACAGTTC please
### Response -0.0557

### Prompt Now the sequence TCTGCTAA
### Response -0.086

### Prompt Another sequence to check: AGACAAAG
### Response 0.0946

### Prompt How about this sequence: CACGTTCC
### Response 0.201

### Prompt Do the same for CTCCTTCC please
### Response -0.152

### Prompt Then ATAGTATG ?
### Response 0.0828

### Prompt Quick one: CCTACGAA
### Response 0.192

### Prompt // next record CAAGCAAC
### Response 0.00354

### Prompt Next: CCGTATTA
### Response 0.316

### Prompt Try this sequence too: GGGTCCTA
### Response -0.218

### Prompt Can you handle CCCAGGTC next?
### Response -0.218

====

# Measurement Target: Ecm22 (UniProt Q05958)
# Sequence: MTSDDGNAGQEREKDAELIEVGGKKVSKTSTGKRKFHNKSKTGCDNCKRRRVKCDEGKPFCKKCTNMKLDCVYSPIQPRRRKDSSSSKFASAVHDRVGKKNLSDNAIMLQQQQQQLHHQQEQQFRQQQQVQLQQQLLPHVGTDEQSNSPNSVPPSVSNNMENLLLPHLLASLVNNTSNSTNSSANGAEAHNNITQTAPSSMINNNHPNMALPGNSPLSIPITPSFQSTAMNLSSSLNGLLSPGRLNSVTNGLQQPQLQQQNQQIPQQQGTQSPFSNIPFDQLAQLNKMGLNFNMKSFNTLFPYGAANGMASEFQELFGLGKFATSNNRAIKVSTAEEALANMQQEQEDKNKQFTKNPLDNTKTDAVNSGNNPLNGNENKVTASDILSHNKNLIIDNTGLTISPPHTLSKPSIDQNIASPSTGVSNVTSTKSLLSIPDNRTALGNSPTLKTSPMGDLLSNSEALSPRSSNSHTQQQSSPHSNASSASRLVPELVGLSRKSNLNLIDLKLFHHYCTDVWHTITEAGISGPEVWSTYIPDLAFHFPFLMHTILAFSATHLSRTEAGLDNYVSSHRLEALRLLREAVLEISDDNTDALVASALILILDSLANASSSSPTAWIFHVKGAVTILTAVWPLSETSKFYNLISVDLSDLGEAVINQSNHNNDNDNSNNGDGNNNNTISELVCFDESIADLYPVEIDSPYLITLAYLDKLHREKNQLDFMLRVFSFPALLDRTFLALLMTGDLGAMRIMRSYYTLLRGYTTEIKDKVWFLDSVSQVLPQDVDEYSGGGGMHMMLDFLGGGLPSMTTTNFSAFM
# Assay Summary: PBM E-score (8-mer binding enrichment) (E-score (-0.5 to 0.5)); higher = stronger / more preferred TF binding
# Test Parameters: protein concentration: 200 nM; construct: GST-full length
In all, about 33,000 sequences were measured (“E-score (-0.5 to 0.5)”: median about -0.041, highest 2% from about 0.37 on). What follows is part of a selection rich in the highest values, with near analogues and random picks from the rest.
Ranges used to classify PBM E-score: group A (below -0.09), group B (-0.09 to below 0.2), group C (0.2 or more)

### Prompt Category of ACGAATTC :
### Response group C

### Prompt Follow-up item: GCTCGCTA
### Response group C

### Prompt Quick one: GGTACAGA
### Response group B

### Prompt Please give the result for ACTCGTTG too.
### Response group C

### Prompt Thanks! And CGATATGC ?
### Response group B

### Prompt Same question for ACTCGTTA please.
### Response group C

### Prompt Queued: CGTACAGA
### Response group C

### Prompt Another sequence to check: AGCAATAA
### Response group A

### Prompt And then GACGATTA , what is it?
### Response group B

### Prompt Likewise for AGCCCAGG ?
### Response group A

### Prompt And the next one, ATCTCGAG ?
### Response group B

### Prompt Now consider CACGATTC .
### Response group C

### Prompt Same again, this time with GGTTCCAC
### Response group A

### Prompt Same for CACGATTA
### Response group B

### Prompt Try the sequence CCACGTTA
### Response group B

### Prompt Please give the result for ATTCTACC too.
### Response group A

### Prompt Input AGACCACG
### Response group A

### Prompt Next: CCTCGTCC
### Response group A

### Prompt Ok, now CGCTCGGA
### Response group C

### Prompt // next record CGTTCCAC
### Response group C

### Prompt Could you do the same for CGCGGAGC , please?
### Response group B

### Prompt Now give it for CCTCGTTC too.
### Response group C

### Prompt Again, but for CCTCGTGC
### Response group B

### Prompt Then GCTGCCTA ?
### Response group A

### Prompt Also check CGTAAACG
### Response group C

### Prompt Another sequence to look at: GAACCTTC
### Response group A

### Prompt Check ACTCGGTC too.
### Response group C

### Prompt # repeat for AGCGGTGC
### Response group B

### Prompt Ok, now ATTCCGTA
### Response group C

### Prompt Same for GGCTCGAA
### Response group B

### Prompt Same thing, different sequence: ACACGACG
### Response group C

### Prompt Next: ATCGATTG
### Response group B

### Prompt Do the same for ATCAACCA please
### Response group A

### Prompt Item: CGTAAACA
### Response group C

### Prompt Another: GGCTCGGA
### Response group B

### Prompt // same read-out, input: AGAAATAA
### Response group B

### Prompt What do we get for TGTAAACA ?
### Response group B

### Prompt Please answer likewise for CCTCGTTA
### Response group C

### Prompt Try this sequence too: ATTGAGGA
### Response group B

### Prompt Continue with ACTCACCG
### Response group A

### Prompt Queued: CGTTCCAA
### Response group C

### Prompt Also need AGGTCGGC , thanks.
### Response group A

### Prompt One more sequence: AGTACAGC
### Response group A

### Prompt Can you handle ATTCAAGG next?
### Response group A

### Prompt Okay, and ATGGGAGG ?
### Response group A

### Prompt Try this sequence too: AACGATTC
### Response group C

Where do these numbers come from? They come from the supplement of paper PMC3334620.
